Origin of the recorded values: patent US10927126B2

# subject.of.test: Human M4 (Homo sapiens, UniProt P08173)
# Sequence (P08173 whole entry): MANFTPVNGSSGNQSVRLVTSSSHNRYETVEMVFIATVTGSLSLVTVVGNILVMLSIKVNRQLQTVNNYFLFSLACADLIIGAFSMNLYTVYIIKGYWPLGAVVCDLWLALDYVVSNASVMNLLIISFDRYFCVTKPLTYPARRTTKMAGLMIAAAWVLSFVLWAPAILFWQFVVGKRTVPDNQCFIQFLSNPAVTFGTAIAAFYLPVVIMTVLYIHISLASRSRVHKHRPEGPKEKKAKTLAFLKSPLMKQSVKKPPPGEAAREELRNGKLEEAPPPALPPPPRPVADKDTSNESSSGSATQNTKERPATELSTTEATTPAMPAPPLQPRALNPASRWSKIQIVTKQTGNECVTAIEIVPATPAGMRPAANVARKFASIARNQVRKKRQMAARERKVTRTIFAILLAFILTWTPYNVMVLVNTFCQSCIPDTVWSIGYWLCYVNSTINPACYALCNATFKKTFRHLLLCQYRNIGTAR
# procedure.details: mAChR M4 cell-based functional assay (calcium flux, potentiation of EC20 acetylcholine response)
Counter-ions that a name gives are not always drawn.
Please respond with reported EC50 for every item in the list.
Give me the value, and tack the unit on after it.

Cc1nnc2sc3c(NCc4ccc(C(C)(C)O)cc4)nccc3c2c1C :: 34.3 nM
Cc1nnc2sc3c(NC4CC4)nccc3c2c1C [Compound 8, hydrochloride] :: 12.1 nM

Now turn to the next compound.
Prompt line: // Input: Cc1cc(C)c2c(n1)sc1c(NC3CN(c4ncc(C(F)(F)F)cn4)C3)nccc12 . Output its EC50 only.
Response line: 150 nM
